Sourced from paper PMC9784969

For each record, write down the corresponding pEC50.
# Tested on: SARS-CoV-2 USA-WA1/2020
# procedure_summary: microbe, parasite or virus in culture
# Format: cell-based
# condition_parameters: Severe acute respiratory syndrome coronavirus 2, 48 h; 293T-ACE2 cells, MOI 0.25, two days; read-out: SARS-CoV-2 EC50
Scale explanation: pEC50 corresponds to minus log10 of a concentration expressed in moles per litre.

Enquiry: For the molecule CC1CN(C(c2ccccc2)(c2ccccc2)c2ccccc2)CCN1 (stereo not shown) [Trityl-piperazine] , give its reported pEC50.
Return: 6.57

Enquiry: For the molecule NCCCc1cn(C(c2ccccc2)(c2ccccc2)c2ccccc2)cn1 [trim] , give its reported pEC50.
Return: 6.48

Enquiry: For the molecule CCN(CC)CCCC(C)Nc1ccc2ccccc2n1 (stereo not shown) [qn1] , give its reported pEC50.
Return: 6.49

Enquiry: For the molecule CC(C)CCN1CCC(CNc2nc3ccccc3c(=O)[nH]2)CC1 [qz2] , give its reported pEC50.
Return: 6.92

----------
# System: SARS-CoV-2 USA-WA1/2020
# procedure_summary: microbe, parasite or virus in culture
# Assay type: cell-based
# condition_parameters: Severe acute respiratory syndrome coronavirus 2, Vero C1008, 48 h, Vero E6 cells, MOI 0.025, two days; read-out: SARS-CoV-2 EC50
For each record, write down the corresponding pEC50.
Scale explanation: pEC50 corresponds to minus log10 of a concentration expressed in moles per litre.

Enquiry: For the compound CCC(=C(c1ccc(OC)cc1)c1ccc(OC)cc1)c1cn(CC(O)CN(C)C)c2ccccc12 (stereo not drawn) , give its reported pEC50.
Return: 5.68

Enquiry: For the compound `NCCCc1cn(C(c2ccccc2)(c2ccccc2)c2ccccc2)cn1` , give its reported pEC50.
Return: 5.46

Enquiry: For the compound CC1CN(C(c2ccccc2)(c2ccccc2)c2ccccc2)CCN1 (stereo not drawn) , give its reported pEC50.
Return: 6.19

Enquiry: For the compound O=C1c2c(O)ccc(O)c2C(=O)c2c(NCCNCCO)ccc(NCCNCCO)c21 [Mitoxantrone, reference compound] , give its reported pEC50.
Return: 5.62

Enquiry: For the compound `CCN(CC)CCNc1cc(-c2cccs2)nc2ccccc12` , give its reported pEC50.
Return: 5.18

Enquiry: For the compound CCN(CC)CCCC(C)Nc1ccc2ccccc2n1 (stereo not drawn) , give its reported pEC50.
Return: 5.03

Enquiry: For the compound `CN(C)CCOc1ccc(C(=C(CCO)c2ccccc2)c2ccccc2)cc1` , give its reported pEC50.
Return: 5.27

Enquiry: For the compound `CCC(=C(c1ccccc1)c1ccc(OCCN(C)C)cc1)c1ccc(O)cc1` , give its reported pEC50.
Return: 6.13
